// provenance: patent US12162878B2

The reader will find reported IC50 values listed item by item below.
Target: UniProt P25440
Sequence (P25440 65-459): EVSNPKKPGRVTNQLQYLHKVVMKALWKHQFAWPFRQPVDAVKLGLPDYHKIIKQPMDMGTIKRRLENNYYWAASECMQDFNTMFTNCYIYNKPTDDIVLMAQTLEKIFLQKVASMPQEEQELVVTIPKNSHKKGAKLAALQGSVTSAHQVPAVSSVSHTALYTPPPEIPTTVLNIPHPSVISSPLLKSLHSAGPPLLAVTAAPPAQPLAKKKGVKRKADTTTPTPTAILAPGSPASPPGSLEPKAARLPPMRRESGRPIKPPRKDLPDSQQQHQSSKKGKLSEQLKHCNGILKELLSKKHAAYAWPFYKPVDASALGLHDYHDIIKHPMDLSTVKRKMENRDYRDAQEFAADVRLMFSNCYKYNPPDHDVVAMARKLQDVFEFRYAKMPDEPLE
Experiment: AlphaScreen binding of compounds on BRD2 (D1+D2)
Conditions: read-out: IC50 against BRD2(1,2)
PARAMETER: IC50 (nM)

- [2H]C([2H])([2H])n1cc(-c2cc(S(=O)(=O)N(C)C)ccc2N2CCC3(CC2)CC3(F)F)c2cc[nH]c2c1=O: 6.5
- [2H]C([2H])([2H])n1cc(-c2cc(S(=O)(=O)N3CC[C@@H](O)C3)ccc2N2CCC3(CC2)CC3(F)F)c2cc[nH]c2c1=O: 1.2
- [2H]C([2H])([2H])n1cc(-c2cc(S(=O)(=O)NC)ccc2N2CCC3(CC2)CC3)c2cc[nH]c2c1=O: 1.6
- [2H]C([2H])([2H])n1cc(-c2cc(S(C)(=O)=O)ccc2N2CCC3(CC2)CC3)c2cc[nH]c2c1=O: 1.1
- [2H]C([2H])([2H])n1cc(-c2cc(S(N)(=O)=O)ccc2N2CCC3(CC2)CC3(F)F)c2cc[nH]c2c1=O: 1.2
- [2H]C([2H])([2H])n1cc(-c2cc(S(=O)(=O)N3CC[C@H](O)C3)ccc2N2CCC3(CC2)CC3(F)F)c2cc[nH]c2c1=O: 1.2
